# Assay Text: basal S. cerevisiae growth modulation, no modifier, primary screen, OD600, strain BY4716, 24 h, basal condition (AID 1173)
# Study Conditions: OD600, 24 h, higher = more signal, called active from +8 up or from −8 down
Property Name: z-score

CCOC(=O)C[C@H]1[C@H](OC(=O)Cc2ccc3c(c2)OCO3)[C@@H](NC(=O)CC(C)C)c2cc(OCCCO)ccc2N1C(=O)c1ccc2ccccc2n1    -1.8
COc1ccc(C(O)C2C=CC3C(=O)N(c4ccccc4)C(=O)C3N2Nc2ccccc2F)c2ccccc12 (configuration not stated)    -1.71
COCCOC(=O)N1C(=O)[C@@]2(c3cc(C#CCC(C(=O)OC)C(=O)OC)ccc31)[C@H](c1ccc(O)cc1)N1[C@H](c3ccccc3)[C@H](c3ccccc3)OC(=O)[C@H]1[C@@H]2C(=O)N1CCc2cc(OC)c(OC)cc2C1    -0.672
C=C(COC)/C(=C/C[C@@H](OC(C)=O)c1cccc(OCCO)c1)c1cnc2ccccc2c1    -7.06
COC(=O)[C@@]1(Cc2ccc(F)cc2)[C@H]2c3cc(C(=O)N(C)C)n(Cc4ccc(C(F)(F)F)nc4)c3C[C@H]2CN1C(=O)c1ccccc1    0.512
[N-]=[N+]=NCc1ccccc1C[C@@]1(C(=O)NCCN2CCOCC2)N=C(c2ccc(OCCCO)cc2)O[C@@H]1c1ccccc1    -2.05
COc1cccc(C)c1NC(=O)O[C@H]1[C@H](OC(=O)Nc2ccccc2-c2ccccc2)[C@@H](OC(=O)Nc2ccccc2-c2ccccc2)[C@@H](OC)O[C@@H]1CO    2.22

----------
# Target Desc: Focal adhesion kinase 1 (Homo sapiens)
# Assay Text: small-molecule microarray binders of FAK, primary screen, biochemical, 635/667 nm fluorescence, BSA, DTT (AID 1130);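 note: composite of spot emission at 667 nm and signal to noise over triplicate slides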
# Study Conditions: PTK2 binding, 635 nm fluorescence, higher = more signal
Property Name: composite z-score

C=CCNC(=O)[C@H]1[C@@H]2C(=O)O[C@@H](c3ccccc3)[C@@H](c3ccccc3)N2[C@@H](c2ccc(OCCO)cc2)[C@]12C(=O)N(C(=O)OCCOC)c1ccc(C#CCNC(N)=O)cc12    0.621
O=C(O)C1=CC[C@H]2C(=O)N(c3ccccc3)C(=O)[C@@H]12    0.424
COc1ccc(NN2C(C(O)c3ccccc3)C=CC3C(=O)N(C4CCCCC4)C(=O)C32)cc1 (stereo not given)    0.82
CCCCN1CC=CC23O[C@@H]4/C=C\CCCOC(=O)C4[C@H]2C(=O)N(CCCCCCO)[C@@H]3C1=O (stereo not given in full)    0.0326
CC[C@@H](O[Si](C#C[Si](C(C)C)(C(C)C)C(C)C)(C(C)C)C(C)C)c1cn(Cc2cccc(Cl)c2)nn1    0.357
O=C(CS)NCCCCCCNC(=O)[C@H]1C[C@H]2C(=O)NCC(=O)N2[C@H]1c1cccc(OCCO)c1    0.128
C=CC[C@H](OC(=O)Nc1ccc(SC)cc1)c1ccc(O)c(F)c1    -0.502
C=CCC(OC(C)=O)[C@@H]1[C@@H](N(Cc2cccc3ccccc23)C(=O)c2ccc(C)cc2)c2cc(OCCCO)ccc2N1C(=O)Cc1ccc2ccccc2c1 (stereo not given in full)    0.358
COC(=O)C1(CC(C)C)C=C2C(=C(C)C(=O)C2C)CN1 (stereo not given)    0.183
CCCCC(=C=CC[C@@H](O)c1ccccc1OCCO)C[C@@H](O)c1ccccn1    0.36
CO[C@H]1O[C@H](CO)[C@@H](OC(=O)Nc2cccc(F)c2)[C@H](OC(=O)Nc2ccc3c(c2)OCO3)[C@@H]1OC(=O)Nc1ccc2c(c1)OCO2    0.243
O=C1C[C@@](C(=O)NCC(F)(F)F)(c2ccc([N+](=O)[O-])cc2)[C@@H](c2ccc(CO)cc2I)N1CC12CC3CC(CC(C3)C1)C2    -0.0231
CCc1cccc(NC(=O)O[C@H]2[C@H](OC(=O)Nc3ccccc3-c3ccccc3)[C@H](OC(=O)Nc3ccccc3-c3ccccc3)[C@@H](OC)O[C@@H]2CO)c1    0.775
[N-]=[N+]=NCc1ccccc1[C@H]1OC(c2ccc(OCCCO)cc2)=N[C@@]1(Cc1ccccc1N=[N+]=[N-])C(N)=O    0.579
C=C[C@@H](CO)NS(=O)(=O)c1ccc(Br)cc1    0.169
C=CCN1C(=O)[C@@]2(O[C@@H](CCO)[C@H]([Si](C)(C)c3ccc(OC)cc3)[C@H]2C)c2cc(N3CCCCC3=O)ccc21    -0.19
COCCCNC(=O)[C@@]1(Cc2ccccc2I)c2ccccc2C(=O)N(C2CCCCC2)[C@H]1c1ccc(CO)cc1    0.312
CC(C)Cc1ccc(CN2CC[C@@H](NC(=O)c3ccccc3)C2)cc1    -0.144
COc1ccc([Si](C)(C)[C@@H]2[C@@H](CC(=O)N3CCC[C@H]3CO)O[C@]3(C(=O)N(Cc4cccc(N5C(=O)c6cccc7cccc5c67)c4)c4ccccc43)[C@H]2C)cc1    0.948
N#Cc1ccc(NN2C(C(O)c3ccc(B(O)O)cc3)C=CC3CN(c4ccccc4)C(=O)C32)cc1 (stereo not given)    -0.508
[N-]=[N+]=NCc1ccccc1[C@H]1OC(c2ccc(OCCCO)cc2)=N[C@@]1(CCS(=O)(=O)c1ccccc1)C(=O)O    0.476
COc1ccc([Si](C)(C)[C@H]2[C@H](CC(=O)N(CCO)Cc3ccccc3)O[C@@]3(C(=O)N(Cc4ccc(N5C(=O)c6cccc7cccc5c67)cc4)c4ccccc43)[C@@H]2C)cc1    0.0253
O=C1OCC=C[C@H]2OC34C=CCN(Cn5nnc6ccccc65)C(=O)[C@H]3N(CCO)C(=O)[C@@H]4[C@@H]12 (stereo not given in full)    -0.619
O=C(N1CCOCC1)[C@]1(CCS(=O)(=O)c2ccccc2)N=C(c2ccc(OCCCO)cc2)O[C@@H]1c1ccccc1    0.99
OCCCc1cc[n+](Cc2cc3c(cc2Br)OCO3)cc1    -0.719
CCOC(=O)C[C@H]1[C@H](OC(=O)Cc2ccc3c(c2)OCO3)[C@@H](NC(=O)CC(C)C)c2cc(OCCCO)ccc2N1C(=O)c1ccc2ccccc2n1    0.325
CCOC(=O)C1=C[C@@H](C(C)(C)C)N(S(=O)(=O)c2ccc(C)cc2)[C@H]1c1ccc(OC)cc1    1.62
O=C1c2ccccc2[C@](Cc2ccccc2I)(C(=O)NCCN2CCOCC2)[C@H](c2ccc(CO)cc2)N1Cc1ccccc1C(F)(F)F    0.334
CC(C)C[C@@H]1NC(=O)[C@H]2C[C@@H](C(=O)O)[C@@H](c3cccc(OCCO)c3)N2C1=O    0.119
COc1ccc(CCNC(=O)[C@@]2(C)c3ccccc3C(=O)N(Cc3ccc(OC(F)(F)F)cc3)[C@H]2c2ccc(CO)cc2)cc1    1.13

----------
Quick reference: composite z-score of the listed items.
# Target Desc: Follistatin (Homo sapiens) (UniProt P19883)
# Sequence (P19883 whole entry, looked up): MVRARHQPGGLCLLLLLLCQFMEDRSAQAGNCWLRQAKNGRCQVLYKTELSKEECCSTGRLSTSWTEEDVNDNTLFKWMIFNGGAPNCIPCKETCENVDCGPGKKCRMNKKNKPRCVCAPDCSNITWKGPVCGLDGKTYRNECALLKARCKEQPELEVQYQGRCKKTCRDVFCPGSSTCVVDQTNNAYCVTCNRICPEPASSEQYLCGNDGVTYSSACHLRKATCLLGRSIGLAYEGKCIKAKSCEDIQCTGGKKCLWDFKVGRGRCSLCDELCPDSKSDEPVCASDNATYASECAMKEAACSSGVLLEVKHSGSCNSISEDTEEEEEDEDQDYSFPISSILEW
# Assay Text: follistatin binders on small-molecule microarrays, primary screen, biochemical, small-molecule microarray, 635/667 nm fluorescence (AID 1132)
# Study Conditions: FST binding, 635 nm fluorescence, higher = more signal
Property Name: composite z-score

O=C1c2ccccc2[C@](Cc2ccccc2I)(C(=O)NCCN2CCOCC2)[C@H](c2ccc(CO)cc2)N1Cc1ccccc1C(F)(F)F    0.447
COc1ccc(NN2C(C(O)c3ccccc3)C=CC3C(=O)N(C4CCCCC4)C(=O)C32)cc1 (stereo unspecified)    0.925
O=C1NC(=O)C2C1C=CC(C(O)C1CCCCC1)N2Nc1ccccn1 (stereo unspecified)    0.597
O=C/C=C/c1ccc(-c2ccccc2)cc1    0.276
CC(C)C[C@H]1NC(=O)CNC(=O)[C@@]23C(=O)N[C@@H](Cc4ccccc4)C2[C@H](C)[C@@]2(C)O[C@H]2C3/C=C/C/C=C\CNC1=O (stereo partly specified)    0.67
COC(=O)[C@@]1(Cc2ccccc2)[C@H]2c3cc(C(=O)N(C)C)n(CCF)c3C[C@H]2CN1C(=O)c1ccccc1    0.0139
CCCNC(=O)[C@@]1(Sc2ccc(C)cc2)CC(=O)N(Cc2cc(C(F)(F)F)cc(C(F)(F)F)c2)[C@@H]1c1ccc(CO)cc1    -0.245
C=C(/C=C\CNS(=O)(=O)c1ccc(C)cc1)[C@H](O)[C@H]1CCCN1S(=O)(=O)c1ccccc1[N+](=O)[O-]    0.216
O=C1C2C=CC(C(O)c3ccccn3)N(Nc3ccc([N+](=O)[O-])cc3)C2C(=O)N1c1ccccc1 (stereo unspecified)    0.336
COCCOC(=O)N1C(=O)[C@@]2(c3cc(C#CCC(C(=O)OC)C(=O)OC)ccc31)[C@H](C(=O)N1CCc3cc(OC)c(OC)cc3C1)[C@H]1C(=O)O[C@H](c3ccccc3)[C@H](c3ccccc3)N1[C@@H]2c1ccccc1OCCO    1.42
[N-]=[N+]=NCc1ccccc1[C@H]1OC(c2ccc(OCCCO)cc2)=N[C@@]1(Cc1ccccc1N=[N+]=[N-])C(=O)N1CCOCC1    0.526
CC1C2C(CCCO)=CC(C3C(=O)N(C)C(=O)C23)N1Cc1cccc(OC(F)(F)F)c1 (stereo unspecified)    0.301
Cc1cccc([C@H]2C[C@H]3C(Br)=C[C@@]2(CO)C(=O)[C@]32CO2)c1    0.39
CN1C(=O)C2C(C1=O)C1C=C(CCCO)C2C(C2CC2)N1C (stereo unspecified)    -0.39
COc1ccc([Si](C)(C)[C@H]2[C@H](CC(=O)N3CCC[C@H]3CO)O[C@@]3(C(=O)N(Cc4cccc(N5CCCCC5=O)c4)c4ccccc43)[C@@H]2C)cc1    1.08
CO[C@H]1O[C@H](CO)[C@@H](OC(=O)Nc2ccccc2)[C@@H]2OC(=O)[C@@H](Cc3ccccc3)C/C=C/C[C@H](Cc3ccccc3)C(=O)O[C@@H]12    0.661
CCCCN1CC=CC23O[C@@H]4/C=C\CCCOC(=O)C4[C@H]2C(=O)N(CCCCCCO)[C@@H]3C1=O (stereo partly specified)    -1.02
CN(C)CCCCCCNC(=O)[C@@H]1C[C@@H]2C(=O)N[C@@H](CCCC[N+](C)(C)C)C(=O)N2[C@@H]1c1cccc(OCCO)c1    0.704
COC(=O)Cn1c(C(=O)N(C)C)cc2c1C[C@H]1CN(C(=O)c3ccccc3)[C@@](Cc3ccccc3)(C(=O)OC)[C@@H]21    -0.253
COCCOC(=O)N1C(=O)[C@@]2(c3cc(C#CC4(O)CCCCCC4)ccc31)[C@H](C(N)=O)[C@H]1C(=O)O[C@H](c3ccccc3)[C@H](c3ccccc3)N1[C@@H]2c1ccc(OCCO)cc1    1.34
CC(C)c1ccc(NN2C(C(O)c3ccccc3)C=CC3C(=O)N(c4ccccc4)C(=O)C32)cc1 (stereo unspecified)    0.075
CC(C)(C)OC(=O)N1[C@@H](C=C(Br)Br)COC1(C)C    0.652
CCCCN1CC=CC23O[C@@H]4/C=C\CCC(C)OC(=O)C4[C@H]2C(=O)N(CCO)[C@@H]3C1=O (stereo partly specified)    -0.531
CCOC(=O)C1=CC[C@@H](c2ccccc2)N(S(=O)(=O)c2ccc(C)cc2)[C@@H]1C#N    0.351
O=C1C2C=CC(C(O)C3CCCCC3)N(Nc3ccccc3F)C2C(=O)N1c1ccccc1 (stereo unspecified)    1.17
O=C(O)C1=CC[C@H]2C(=O)N(c3ccccc3)C(=O)[C@@H]12    0.845
C=CC[C@@]1(C(=O)NCCCOC)N=C(c2ccc(OCCCO)cc2)O[C@@H]1c1ccccc1CN=[N+]=[N-]    1.15
COCCOC(=O)N1C(=O)[C@@]2(c3cc(C#CCNC(N)=O)ccc31)[C@H](C(=O)Nc1nc3ccccc3s1)[C@H]1C(=O)O[C@H](c3ccccc3)[C@H](c3ccccc3)N1[C@@H]2c1ccc(O)cc1    1.31
C=CC[C@H](O)c1ccc(O)c(F)c1    -1.28
NCCCCCCNC(=O)[C@@H]1C[C@@H]2C(=O)NCC(=O)N2[C@@H]1c1cccc(OCCO)c1    1.46
Cc1ccc(S[C@]2(C(=O)NC3CC3)CC(=O)N(C3Cc4ccccc4C3)[C@@H]2c2ccc(CO)cc2I)cc1    0.0932

Recorded values, source PubChem BioAssay.
